For Cbl-b (residues 36-427) (Homo sapiens, UniProt Q13191), measured Kd is reported for the entries below.

**Query** Bench note: what Kd did C[C@H](Sc1nncn1C1CC1)c1cccc(NC(=O)c2cc3ccccc3cn2)c1 show?
**Result** 3 to 10 µM

**Query** Bench note: what Kd did C[C@H](Sc1nncn1C)c1cccc(NC(=O)c2cc(C(=O)N3CC[C@H](O)C3)ccn2)c1 show?
**Result** 0.301 to 1 µM

**Query** Bench note: what Kd did C[C@H](Sc1nncn1C)c1ccnc(NC(=O)c2cccc(Cl)n2)c1 show?
**Result** 3 to 10 µM

----------
fold induction at 10 µM listing for selected molecules.
# Tested on: primary human NK cells
# protocol notes: NK cell activation assessed by cytokine secretion (coculture with K562 NucRed target cells)
# Type: cell-based
# measurement conditions: K562, 1:1 E/T, 10 μM, read-out: TNFα secretion
# Text: Peripheral blood mononuclear cells (PBMC) were obtained either: 1) by using Ficoll-Paque™ (GE Healthcare) for separation of peripheral blood hematopoietic cells from buffy coats of healthy human donors; or 2) directly from LeukoPak donations. […] Cell free supernatants were collected and analyzed for cytokine secretion (e.g. TNFα, IFNγ, or MIP1β) by ELISA or Luminex multiplex kits following the manufacturer's protocol. […] Readouts were reported as fold change over baseline. […]

Cn1cnnc1C(F)(F)[C@](C)(F)c1cccc(N2Cc3c(cc(CN4CCC(F)(F)C4)cc3C(F)(F)F)C2=O)c1 [Compound 448] ... 2.01 to 5

**Query** GET /values?readout=fold induction at 10 µM&system=primary human NK cells&item= Cn1cnnc1C(F)(F)[C@](C)(F)c1cccc(N2Cc3c(cc(CN4CC[C@H](F)C4)cc3C(F)(F)F)C2=O)c1 [Compound 447]
**Result** 2.01 to 5

**Query** GET /values?readout=fold induction at 10 µM&system=primary human NK cells&item= C[C@H](Cc1nncn1C)c1cccc(N2Cc3c(cc(CN4CC[C@H](F)C4)cc3C(F)(F)F)C2=O)c1 [Compound 399]
**Result** 2.01 to 5

**Query** GET /values?readout=fold induction at 10 µM&system=primary human NK cells&item= C[C@H](Cc1nncn1C)c1cccc(N2Cc3c(cccc3C(F)(F)F)C2=O)c1 [Compound 255a]
**Result** < 1

**Query** GET /values?readout=fold induction at 10 µM&system=primary human NK cells&item= C[C@H](Cc1nncn1C)c1cccc(NC(=O)c2cc(C(=O)N3CC[C@H](O)C3)cc(C(F)(F)F)n2)c1 [Compound 220]
**Result** 2.01 to 5
